src = patent EP1362858A1

Recorded pIC50 for the following compounds
Target: rabbit platelet PDE V (Oryctolagus cuniculus, UniProt G1SX67)
Test: PDE V inhibition, PDE SPA assay kit with [3H]-cGMP
Type: biochemical
Conditions: in vitro inhibition of cGMP PDE V; 30 °C, 30 min; read-out: IC50
Procedure: The rabbit platelet PDE V was prepared using the method described by Hidaka et al. (Biochim. Biophys. Acta., 429: 485 - 497, 1976) with minor modification. The plateletrich plasma (PRP) was prepared by centrifugation of freshly obtained heparinized whole blood at 360 g. […] The cyclic nucleotide PDE V activity was determined using PDE SPA assay kit (Amersham Pharmacia biotech, UK). […] The reaction tube was then settled for 20 min and was counted on the scintillation counter (Tri-carb 1500, Packard, USA). […]
pIC50: −log10 of the molar value.
MEASUREMENT KIND: pIC50

[[record]]
mol_smiles = "CCCOc1ccc(S(=O)(=O)N2CCN(CCOC(=O)C(C)C)CC2)cc1-c1nc2c(CCC)cn(CC)c2c(=O)[nH]1"
observed_result = 8.06

[[record]]
mol_smiles = "CCCOc1ccc(S(=O)(=O)N2CCN(CCOC(=O)CCC)CC2)cc1-c1nc2c(CCC)cn(CC)c2c(=O)[nH]1"
observed_result = 8.05

[[record]]
mol_smiles = "CCCOc1ccc(S(=O)(=O)N2CCN(CCOC(=O)c3ccccc3)CC2)cc1-c1nc2c(CCC)cn(CC)c2c(=O)[nH]1"
observed_result = 7.84

[[record]]
mol_smiles = "CCCOc1ccc(S(=O)(=O)N2CCN(CCOC(=O)OCC)CC2)cc1-c1nc2c(CCC)cn(CC)c2c(=O)[nH]1"
observed_result = 8.12

[[record]]
mol_smiles = "CCCOc1ccc(S(=O)(=O)N2CCN(CCOC(C)=O)CC2)cc1-c1nc2c(CCCF)cn(CC)c2c(=O)[nH]1"
observed_result = 8.83

[[record]]
mol_smiles = "CCCOc1ccc(S(=O)(=O)N2CCN(CCOC(C)=O)CC2)cc1-c1nc2c(CCC)cn(CC)c2c(=O)[nH]1"
observed_result = 8.55

[[record]]
mol_smiles = "CCCOc1ccc(S(=O)(=O)N2CCN(CCOC(=O)CC)CC2)cc1-c1nc2c(CCC)cn(CC)c2c(=O)[nH]1"
observed_result = 8.24


###

Biological target: rabbit platelet PDE V (Oryctolagus cuniculus, UniProt G1SX67)
Experiment: PDE V inhibition, PDE SPA assay kit with [3H]-cGMP
Assay type: biochemical
MEASUREMENT KIND: IC50 (nM)

[[record]]
compound = "CCCOc1ccc(S(=O)(=O)N2CCN(CCOC(=O)Cc3ccccc3)CC2)cc1-c1nc2c(CCC)cn(CC)c2c(=O)[nH]1 [Example 24]"
observed_result = 8.68

